Measured values drawn from patent US8440837B2 for this set.

Molecular target: human metabotropic glutamate receptor 5 (hmGluR5) (UniProt P31424)
Assay: Calcium mobilization (FLIPR) assay, positive allosteric modulation of the EC20 glutamate response
Conditions: HEK 293 cells, increase in EC20 glutamate response
pEC50: −log10 of the molar value.
pEC50 vs 7: at or above is y, below is n.

Would you please look over these solved cases?
Is reported pEC50 greater than or equal to 7 here: CC1(O)CCN(C(=O)c2cnc(C#Cc3ccccc3)s2)CC1 n

Is reported pEC50 greater than or equal to 7 here: OC(c1cnc(C#Cc2ccccc2)s1)C1CCCCC1 (stereo not shown) y

Is reported pEC50 greater than or equal to 7 here: O=C(c1cnc(C#Cc2ccsc2)s1)N1CCCCC1 y

Is reported pEC50 greater than or equal to 7 here: CC(c1cnc(C#Cc2ccccc2)s1)N1CCOCC1 (stereo not shown) n

Is reported pEC50 greater than or equal to 7 here: O=C(c1cnc(C#Cc2ccccc2)s1)N1CC2CCC1C2 (stereo not shown) y

***
Is reported pEC50 greater than or equal to 7 here: O=C(c1cnc(C#Cc2ccccc2)s1)N1CC2CCCC2C1 (stereo not shown) y

Is reported pEC50 greater than or equal to 7 here: O=C(c1cnc(C#Cc2ccccc2)s1)N1CCCCCC1 y

Is reported pEC50 greater than or equal to 7 here: CC1CCN(C(=O)c2cnc(C#Cc3ccccc3)s2)CC1 y

Is reported pEC50 greater than or equal to 7 here: O=C(c1cnc(C#Cc2ccccc2)s1)N1CCC(O)CC1 n

---

Target: human metabotropic glutamate receptor 5 (hmGluR5)
Assay: Calcium mobilization (FLIPR) assay, negative allosteric modulation of the EC80 glutamate response
Conditions: HEK 293 cells, inhibition of EC80 glutamate response
Form field: IC50 (one value per entry).
Please state the value followed by its unit.

// solved cases for IC50 follow
Request the reported IC50 associated with O=C(c1cnc(C#Cc2ccccc2)s1)N1CCC(F)(F)C1 31 nM

Request the reported IC50 associated with COCC1CCCN(C(=O)c2cnc(C#Cc3ccccc3)s2)C1 (stereo not drawn) 33 nM

Request the reported IC50 associated with O=C(c1cnc(C#Cc2ccccc2)s1)N1CC[C@H](F)C1 3.2 nM

Request the reported IC50 associated with O=C(c1cnc(C#Cc2ccccc2)s1)N1C2CCC1CC2 5 nM

Request the reported IC50 associated with CC(c1cnc(C#Cc2ccccc2)s1)N1CCCCC1 (stereo not drawn) 700 nM

Request the reported IC50 associated with O=C(c1cnc(C#Cc2ccccn2)s1)N1CCCC1 20 nM

***
Request the reported IC50 associated with O=C(c1cnc(C#Cc2ccccc2)s1)N1CC2CNCC2C1 (stereo not drawn) 440 nM

Request the reported IC50 associated with Cc1nc(C#Cc2ccccc2)sc1C(=O)NC1CCCC1 36 nM

Request the reported IC50 associated with COC[C@@H]1CCCN1C(=O)c1cnc(C#Cc2ccccc2)s1 27 nM

Request the reported IC50 associated with CC(C)(C)OC(=O)N1CC2CN(C(=O)c3cnc(C#Cc4ccccc4)s3)CC2C1 (stereo not drawn) 25 nM

Request the reported IC50 associated with O=C(c1cnc(C#Cc2ccccc2)s1)N1CCCC1 3.2 nM

---

Form field: maximum modulation (Emax) (one value per entry).
Molecular target: UniProt P31424
Assay: Calcium mobilization (FLIPR) assay, positive allosteric modulation of the EC20 glutamate response
Assay type: cell-based
Conditions: HEK 293 cells, EC20 glutamate response
# unit: % | format: bare number

Find the measured maximum modulation (Emax): item CC1CCN(C(=O)c2cnc(C#Cc3ccccc3F)s2)CC1 , target or system UniProt P31424. 140

***
Find the measured maximum modulation (Emax): item CN1CCN(C(=O)c2cnc(C#Cc3ccccc3)s2)CC1 , target or system UniProt P31424. 160

Find the measured maximum modulation (Emax): item COc1ccc(C#Cc2ncc(C(=O)N3CCCCC3)s2)cc1 , target or system UniProt P31424. 64

---

Molecular target: human metabotropic glutamate receptor 5 (hmGluR5)
Test: Calcium mobilization (FLIPR) assay, negative allosteric modulation of the EC80 glutamate response
Conditions: HEK 293 cells, inhibition of EC80 glutamate response
quantity-measured: IC50

Request the reported IC50 associated with O=C(c1ccccc1)c1cnc(C#Cc2ccccc2)s1 360 nM

Request the reported IC50 associated with O=C(c1cnc(C#Cc2ccccc2)s1)N1CC(F)(F)C1 54 nM

Request the reported IC50 associated with CC(O)(c1ccccc1)c1cnc(C#Cc2ccccc2)s1 (stereo not shown) 140 nM

As a next step, examine the molecule that follows.
Request the reported IC50 associated with O=C(c1cnc(C#Cc2cccc(F)c2)s1)N1CCCC1 7.1 nM

---

Molecular target: human metabotropic glutamate receptor 5 (hmGluR5)
Assay: Calcium mobilization (FLIPR) assay, positive allosteric modulation of the EC20 glutamate response
Format: cell-based
Settings: HEK 293 cells, EC20 glutamate response
quantity-measured: maximum modulation (Emax) (%)
# unit: % | format: bare number

// solved cases for maximum modulation (Emax) follow
Request the reported maximum modulation (Emax) associated with CC1(O)CCCN(C(=O)c2cnc(C#Cc3ccccc3)s2)CC1 (centres unmarked) 61

Request the reported maximum modulation (Emax) associated with O=C(c1cnc(C#Cc2ccccc2)s1)N1CC(N2CCOCC2)C1 40

Request the reported maximum modulation (Emax) associated with COC1CN(Cc2cnc(C#Cc3ccccc3)s2)C1 120

Request the reported maximum modulation (Emax) associated with CN(C)Cc1cnc(C#Cc2ccccc2)s1 71

Request the reported maximum modulation (Emax) associated with FC1(F)CCN(Cc2cnc(C#Cc3ccccc3)s2)CC1 110

Request the reported maximum modulation (Emax) associated with O=C(c1cnc(C#Cc2cccc(Cl)c2)s1)N1CCC(O)CC1 42

***
Request the reported maximum modulation (Emax) associated with C(#Cc1ncc(CN2CC3CCC2C3)s1)c1ccccc1 (centres unmarked) 79

Request the reported maximum modulation (Emax) associated with CC(c1cnc(C#Cc2ccccc2)s1)N1CCOCC1 (centres unmarked) 62

Request the reported maximum modulation (Emax) associated with Cc1cccc(C#Cc2ncc(C(=O)N3CCC(O)CC3)s2)c1 50

Request the reported maximum modulation (Emax) associated with O=C(c1cnc(C#Cc2ccccc2Cl)s1)N1CCCCC1 100

---

Form field: maximum modulation (Emax) (one value per entry).
Target: human metabotropic glutamate receptor 5 (hmGluR5) (UniProt P31424)
Assay: Calcium mobilization (FLIPR) assay, positive allosteric modulation of the EC20 glutamate response
Assay type: cell-based
Conditions: HEK 293 cells, EC20 glutamate response
# unit: % | format: bare number

// solved cases for maximum modulation (Emax) follow
Find the measured maximum modulation (Emax): item O=C(c1cnc(C#Cc2ccccc2)s1)N1CCc2sccc2C1 , target or system human metabotropic glutamate receptor 5 (hmGluR5) (UniProt P31424). 180

Find the measured maximum modulation (Emax): item C(#Cc1ncc(CN2CCCC2)s1)c1ccccc1 , target or system human metabotropic glutamate receptor 5 (hmGluR5) (UniProt P31424). 110

Find the measured maximum modulation (Emax): item O=C(c1cnc(C#Cc2ccc(F)cc2)s1)N1CCCCC1 , target or system human metabotropic glutamate receptor 5 (hmGluR5) (UniProt P31424). 110

***
Find the measured maximum modulation (Emax): item O=C(c1cnc(C#Cc2ccccc2)s1)N1CCC2(CCCO2)CC1 , target or system human metabotropic glutamate receptor 5 (hmGluR5) (UniProt P31424). 120

Find the measured maximum modulation (Emax): item O=C(c1cnc(C#Cc2ccsc2)s1)N1CCCCC1 , target or system human metabotropic glutamate receptor 5 (hmGluR5) (UniProt P31424). 78

Find the measured maximum modulation (Emax): item O=C(c1cnc(C#Cc2ccccc2)s1)N1CC2(COC2)C1 , target or system human metabotropic glutamate receptor 5 (hmGluR5) (UniProt P31424). 150

Find the measured maximum modulation (Emax): item CC1CCN(C(=O)c2cnc(C#Cc3cccc(F)c3)s2)CC1 , target or system human metabotropic glutamate receptor 5 (hmGluR5) (UniProt P31424). 110
